Molecular target: T1, human VEGF (hVEGF) (human, UniProt P15692 181-395);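 also: fab variants flowed over hVEGF immobilized on a CM5 chip, rate constants from a one-to-one Langmuir fit, Kd taken as koff over kon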
T1 construct: also called VEGF-A
T1 sequence: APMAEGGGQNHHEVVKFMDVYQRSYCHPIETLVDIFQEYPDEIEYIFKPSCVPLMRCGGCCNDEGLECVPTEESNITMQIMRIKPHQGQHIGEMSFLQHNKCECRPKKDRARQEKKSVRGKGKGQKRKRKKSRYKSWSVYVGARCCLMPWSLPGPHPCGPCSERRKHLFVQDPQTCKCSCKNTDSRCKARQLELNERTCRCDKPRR
Test: SPR
measured quantity: kon (M⁻¹ s⁻¹)

>  <binder>
HCLC1 (Fab, V domains shown, Fab) VH: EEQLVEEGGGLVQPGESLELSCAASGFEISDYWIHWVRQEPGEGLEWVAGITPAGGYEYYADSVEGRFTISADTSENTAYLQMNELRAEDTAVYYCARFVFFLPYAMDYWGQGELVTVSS VL: DIQMTQSPESLSASVGDEVTITCRASQDVSTAVAWYQQKPGKAPKLLIYSASFLYSGVPSRFSGSGSGTDFTLTISSLQPEDAATYYCQQGYGAPFTFGQGTKVEIK

>  <reported value>
1.37e+06

$$$$
>  <binder>
G6.31 AAEE (LC-N94A.LC-F83A.HC-A40E.HC-T57E) (Fab, V domains shown, Fab; also called HC-A40E, HC-T57E, LC-F83A, LC-N94A) VH: EVQLVESGGGLVQPGGSLRLSCAASGFTISDYWIHWVRQEPGKGLEWVAGITPAGGYEYYADSVKGRFTISADTSKNTAYLQMNSLRAEDTAVYYCARFVFFLPYAMDYWGQGTLVTVSS VL: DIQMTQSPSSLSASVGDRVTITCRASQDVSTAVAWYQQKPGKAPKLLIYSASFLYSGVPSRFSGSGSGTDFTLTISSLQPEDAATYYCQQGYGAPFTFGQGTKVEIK

>  <reported value>
1.27e+06

$$$$
>  <binder>
HCLC4 (Fab, V domains shown, Fab) VH: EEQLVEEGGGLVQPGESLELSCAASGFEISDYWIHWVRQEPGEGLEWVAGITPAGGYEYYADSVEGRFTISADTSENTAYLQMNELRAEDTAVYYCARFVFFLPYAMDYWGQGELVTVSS VL: DIQMTQSPSSLSASVGDEVTITCRASQDVSTAVAWYQQKPGKAPKLLIYSASFLYSGVPSRFSGSGSGTDFTLTISSLQPEDAATYYCQQGYGAPFTFGQGTKVEIK

>  <reported value>
2.03e+06

$$$$
